Please go through the items and note down their melting point.

Worked set:
COCC(=O)Nc1nc(C(=O)NCCN(C(C)C)C(C)C)c(O)c2ncc(Cc3ccc(F)cc3)cc12
69 to 70 °C
COCC(=O)Nc1nc(C(=O)NC(C)C(=O)OC)c(O)c2ncc(Cc3ccc(F)cc3)cc12 (stereo not drawn)
181 to 182 °C
COCC=Cc1nc(C(=O)NCCN(C)C)c(O)c2ncc(Cc3ccc(F)cc3)cc12.Cl.O (hydrate or solvate)
156 to 158 °C

Provide melting point for all items below, preserving their order.
1. CCOCCNC(=O)c1nc(NC(=O)COC)c2cc(Cc3ccc(F)cc3)cnc2c1O
2. COCCN(C)C(=O)c1nc(NC(=O)COC)c2cc(Cc3ccc(F)cc3)cnc2c1O
3. COCCNC(=O)c1nc(C)c2cc(Cc3ccc(F)cc3)cnc2c1O
4. COCCNC(=O)c1nc(C(=O)OC2CCN(C(C)=O)CC2)c2cc(Cc3ccc(F)cc3)cnc2c1O
5. COCCNC(=O)c1nc(C(=O)OCCOC)c2cc(Cc3ccc(F)cc3)cnc2c1O
6. CN(C)NC(=O)c1nc(NC(=O)C(=O)N(C)C)c2cc(Cc3ccc(F)cc3)cnc2c1O
7. COCCNC(=O)C(=O)Nc1nc(C(=O)NN(C)C)c(O)c2ncc(Cc3ccc(F)cc3)cc12
8. COCCNC(=O)c1nc(NC(C)=O)c2cc(Cc3ccc(F)cc3)cnc2c1O

### Response
["175 to 177 °C", "66 to 68 °C", "167 to 168 °C", "92 to 94 °C", "139 to 141 °C", "125 to 128 °C", "167 to 169 °C", "216 to 217 °C"]

Give me melting point for each of these compounds, listed below.
1. CNC(=O)C(=O)Nc1nc(C(=O)NC(C)CO)c(O)c2ncc(Cc3ccc(F)cc3)cc12 (stereo not drawn)
2. CC(O)c1nc(C(=O)NN(C)C)c(O)c2ncc(Cc3ccc(F)cc3)cc12 (stereo not drawn)
3. COCC(=O)Nc1nc(C(=O)NCCOC(C)C)c(O)c2ncc(Cc3ccc(F)cc3)cc12
4. COCC=Cc1nc(C(=O)NN(C)C)c(O)c2ncc(Cc3ccc(F)cc3)cc12

### Response
131 to 133 °C
114 to 116 °C
149 to 150 °C
115 to 116 °C
